# System Under Test: PICK1, Q9NRD5
# Sequence (Q9NRD5 17-115): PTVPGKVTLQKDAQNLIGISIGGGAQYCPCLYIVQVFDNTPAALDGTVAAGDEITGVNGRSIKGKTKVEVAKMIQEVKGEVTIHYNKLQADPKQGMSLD
# Protocol Details: holdup assay
# Set-up: key: below the threshold = too weak to quantify, mostly under pKd 3.1 to 4
# Conditions: plain residues with an end cap or a label only (N-terminal biotin on a linker: ado-ado)
Each entry below lists one item and its recorded pKd value.

Binder: KKMLQRRTLL [OR8G1, Q15617]
pKd: 3.99

Binder: SPDRDRESIV [SCN5A, Q14524]
pKd: 4.21

Binder: RSSGGDDFWF [KCNV1, Q6PIU1]
pKd: 4.01

Binder: IDESKKEWLI [CNTNAP2, Q9UHC6]
pKd: 4.19

Binder: ARSAAASNYV [CLDN4, O14493]
pKd: 4.15
